Listing of recorded growth by entry.
# System: MCF7 breast
# method: NCI-60 one-dose screen, 48 h (100 = growth as untreated, 0 = no growth, -100 = all killed)
# testConditions: 10 µM unless noted
The panel holds about 83,000 compounds, 20% with a hit somewhere; the sample as a whole holds those more often.
# value in %; strip the unit string

Please review the entries below; each comes with its answer.
| molecule | endpointValue |
| --- | --- |
| COc1cc(-c2cc(-c3cccs3)c(C#N)c(N3CCOCC3)n2)cc(OC)c1OC | 61.9 |
| N#CCSc1nnc2n(Cc3ccccc3)c(=O)c3c4c(sc3n12)CCCC4 | 98.9 |
| COc1ccc(-c2nn(-c3ccccc3)cc2/C=C2/SC(=S)N(C)C2=O)cc1 | 75.3 |

The recorded growth for "N=C(N)c1ccc(-c2ccc(-c3ccc(Cl)cc3)s2)nc1" is -73.3

response.value for Cc1ccc(C2=Nc3c(N)ncnc3NC(c3ccc4c(c3)OCO4)C2)cc1 (stereo not given) (field: growth) = 25.9

* * *

# Test system: BT-549 breast
# method: NCI-60 one-dose screen, 48 h (100 = growth as untreated, 0 = no growth, -100 = all killed)
# testConditions: 10 µM unless noted
This is part of a sample that, as a whole, favours compounds with a hit. Of some 83,000 tested, about 20% had one in any assay.
Reported growth by item:
Only the number, expressed in %, is required.

Examples with their reported growth follow.
| molecule | subjectOfTest | growth, % |
| --- | --- | --- |
| CCCCN[C@H]1CC[C@@]2(C)[C@@H](CC[C@@]3(C)[C@H]2[C@H](O)C[C@H]2/C(=C(\CCC=C(C)C)C(=O)OC)[C@@H](OC(C)=O)C[C@@]23C)[C@@H]1C | BT-549 breast | 93.5 |
| COc1ccc(/C=C2\C(=O)N=C3N2NC(c2cc(Br)ccc2O)C=C(C)N3c2ccccc2)cc1 (centres undefined) | BT-549 breast | 88 |
| COc1cccc([C@H]2c3[nH]c4ccccc4c3C[C@H]3C(=O)N(CCCCCCC(=O)NO)CC(=O)N23)c1 | BT-549 breast | 77.9 |

Memo: "O=C(/C=C/c1ccccc1)c1cccc(OCCCOc2cccc(C(=O)/C=C/c3ccccc3)c2)c1" , reported growth: 92

* * *

In this section we review reported growth values for a set of compounds.
# Test system: UACC-62 melanoma
# method: NCI-60 one-dose screen, 48 h (100 = growth as untreated, 0 = no growth, -100 = all killed)
# testConditions: 10 µM unless noted
Compounds without any hit were thinned out: in the full panel of roughly 83,000, 20% have a hit.
Use % as the unit, but write only the number.

# example entries with known answers
| compound | growth (%) |
| --- | --- |
| CC12CCC3c4ccccc4CCC3(CO1)C2 (stereo not given) | 105 |
| COc1ccc(Cc2cc(-c3ccccc3)nn(Cc3ccccc3)c2=O)cc1OC | 30.6 |
| CCCCCOc1ccc(C(=O)/C(Br)=C/C(=O)O)cc1 | 90.9 |

Looking up "CCN(CC)CCCN1C(=O)c2c(c(C)c3c(oc4cc(O)ccc43)c2C)C1=O" , I see its growth listed as 95.2

Measured growth of "Cc1cccnc1NC(=S)Nc1ncccc1C" : 100

Sample "CC1(C)CC[C@]2(C(=O)O)CC[C@]3(C)C(=CC[C@@H]4[C@@]5(C)C/C(=C/O)C(=O)C(C)(C)[C@@H]5CC[C@]43C)[C@@H]2C1" ; growth observed: 61.6

* * *

# Tested on: MALME-3M melanoma
# method: NCI-60 one-dose screen, 48 h (100 = growth as untreated, 0 = no growth, -100 = all killed)
# testConditions: 10 µM unless noted
This is part of a sample that, as a whole, favours compounds with a hit. Of some 83,000 tested, about 20% had one in any assay.
reportedProperty: growth (%)
Answer in %, number only, no unit symbol.

| molecule | growth / % |
| --- | --- |
| COc1ccc(-c2nnc3n(C)c(=O)c4ccccc4n23)cc1N | 51.9 |
| CNc1nc(S(=O)c2ccc(C#N)cc2)nc2ccccc12 (centres undefined) | 54.8 |
| CN(C)CCCC1(c2ccc(F)cc2)OCc2cc(-c3cncc4ccccc34)ccc21 (centres undefined) | -85 |

Pending molecule:
"O=[N+]([O-])/C(=C/C=C/c1ccccc1)c1ccccc1" yielded growth of 96.1

* * *

# Tested on: NCI-H226 lung
# method: NCI-60 one-dose screen, 48 h (100 = growth as untreated, 0 = no growth, -100 = all killed)
# testConditions: 10 µM unless noted
About 83,000 compounds went through this panel and 20% of them were active in at least one assay; those are over-represented in the sample as a whole.
reportedProperty: growth (%)
Please reply with the bare figure in % and do not write the unit itself.

| molecule | growth / % |
| --- | --- |
| C#Cc1cccc(Nc2ncnc3ccc(-c4cnc(N)nc4)cc23)c1 | 53.2 |

Just so you know, measured growth for "C=C(C)[C@@H]1CC[C@]2(C(=O)NCCNCCN)CC[C@]3(C)[C@H](CC[C@@H]4[C@@]5(C)C/C(=C/c6ccncc6)C(=O)C(C)(C)[C@@H]5CC[C@]43C)[C@@H]12" came out at 100

Query "COc1ccc(C(=S)N2CCN(c3ccccc3Cl)CC2)cc1OC" yields growth of 98.1

# molecule "Cc1nnc(-n2c(O)cc(=O)n(-c3ccccc3)c2=S)nc1/C=C/c1ccc(N(C)C)cc1" ; its growth = 61.2

* * *

# System: MCF7 breast
# method: NCI-60 one-dose screen, 48 h
# testConditions: 10 µM unless noted
# Description: Growth inhibition of the MCF7 human tumor cell line is measured as a screen for anti-cancer activity. Cells are grown in 96 well plates and exposed to the test compound for 48 hours. Compounds are tested at a single concentration, which is 10^-5 M for most compounds. The reported endpoint is percent growth (GI% or GIPRCNT), where numbers from 0 - 100% represent growth inhibition, and numbers from -100% - 0 represent cell death. For example, a value of 40 represents 60% growth inhibition. […]
The panel holds about 83,000 compounds, 20% with a hit somewhere; the sample as a whole holds those more often. Calls of active or inactive are those of the source. How the source made its calls: active means growth percent below 10; inactive means the rest.
Outcome (select one): active, inactive

| compound | classification |
| --- | --- |
| Nc1c(C(=O)Nc2ccccc2Cl)sc2nc3c(cc12)C(O)CCC3 (stereo not given) | inactive |
| C=CCc1c(O)c(C(=O)/C=C/c2ccc(Cl)cc2)c(OC)c2ccoc12 | inactive |
| COc1cc(CNS(=O)(=O)c2ccc(C)cc2)ccc1OCc1cn(-c2ccc(F)cc2)nn1 | inactive |
| C=CC(=O)NCc1ccc(Nc2nccc(-c3ccc(N4CCCC4)c(C#N)c3)n2)cc1 | inactive |
| CN1C(=O)/C(=C/c2ccc(C(=O)Nc3ncc(Cc4ccc(Cl)cc4)s3)cc2)SC1=S | inactive |

Lookup: Answer briefly: the call reported for "C=C(C)[C@@H]1CC[C@]2(C(=O)NCCNCCN)CC[C@]3(C)[C@H](CC[C@@H]4[C@@]5(C)C/C(=C/c6ccncc6)C(=O)C(C)(C)[C@@H]5CC[C@]43C)[C@@H]12" in this assay.
Found: inactive

* * *

# Test system: RPMI-8226 leukemia
# method: NCI-60 one-dose screen, 48 h (100 = growth as untreated, 0 = no growth, -100 = all killed)
# testConditions: 10 µM unless noted
About 83,000 compounds went through this panel and 20% of them were active in at least one assay; those are over-represented in the sample as a whole.
Below, each entry is listed alongside its reported growth.
Number in %, nothing else.

Summary for this compound, "COC(=O)[C@H]1CCCN1C[C@@H](O)CN1C(=O)/C(=C\c2cc(OC)c(OC)c(OC)c2)c2ccccc21" : growth is 91.4

Please fill in: growth reported for "CCc1n(Cc2ccc3ccccc3c2)cc[n+]1Cc1ccc2ccccc2c1" = -23.1

// growth lookup, compound = "COc1cnc2c(c1)C(=O)c1c-2n(CCCNCCO)c(=O)c2ccncc12" , result: -4.03

Recorded result, "CN(C)c1ccc(/C=C/C(=O)c2ccc(-n3cc(CN4CCN(c5cc6c(cc5F)c(=O)c(C(=O)O)cn6C5CC5)CC4)nn3)cc2)cc1" , growth: -24.6

Measured growth of "O=C(Cn1c(-c2ccc([N+](=O)[O-])cc2)nc2ccccc21)NNC(=O)c1cccnc1" : 77.6

growth measured on "Cc1ccc(/C=C2\CN(C(=O)OC(C)(C)C)C/C(=C\c3ccc(C)cc3)C2=O)cc1" = -25.8

The compound listed as "O=C(Nc1cccnc1Nc1ccc(F)cc1)c1cn(Cc2cccc(Oc3ccccc3)c2)nn1" shows growth equal to 78.9

* * *

# Test system: CCRF-CEM leukemia
# method: NCI-60 one-dose screen, 48 h
# testConditions: 10 µM unless noted
# Protocol: Growth inhibition of the CCRF-CEM human tumor cell line is measured as a screen for anti-cancer activity. Cells are grown in 96 well plates and exposed to the test compound for 48 hours. Compounds are tested at a single concentration, which is 10^-5 M for most compounds. The reported endpoint is percent growth (GI% or GIPRCNT), where numbers from 0 - 100% represent growth inhibition, and numbers from -100% - 0 represent cell death. For example, a value of 40 represents 60% growth inhibition. […]
This is part of a sample that, as a whole, favours compounds with a hit. Of some 83,000 tested, about 20% had one in any assay. The source made the active and inactive calls. The calls were made as follows: active = growth percent below 10; inactive = the rest.
Bench note: report the call from active, inactive

Solved cases (9 shown):
| compound | classification |
| --- | --- |
| COP(=O)(OC)C(C)(C)CC(=O)CC(C#N)(C#N)C(C#N)C#N | active |
| CCN(CC)c1nc(SCc2ccccc2Cl)ncc1C | inactive |
| C=C1CC[C@@H]2[C@](C)(COC(C)=O)[C@H](OC(C)=O)CC[C@@]2(C)[C@@H]1CC(Sc1ccccc1)C1=CCOC1=O (stereo not given in full) | active |
| O=[N+]([O-])c1ccc(-c2nc(N3CCOCC3)c3c4c(sc3n2)CCCC4)cc1 | inactive |
| O=C(Nc1nn(-c2ccc(Cl)cc2Cl)nc1-c1ccccc1)c1ccccc1 | inactive |
| O=[N+]([O-])/C(=C/C=C/c1ccccc1)c1ccccc1 | inactive |
| CC[C@]12C=CCN3CC[C@@]4(c5cc(NC(=O)CCC(=O)OCc6cn(Cc7ccc(F)cc7)nn6)c(OC)cc5N(C)[C@H]4[C@@](O)(C(=O)OC)[C@@H]1OC(C)=O)[C@@H]32 | inactive |
| O=C(CSc1nnc2n1S(=O)(=O)c1ccccc1N2c1ccccc1)Nc1nc2ccc(F)cc2s1 | inactive |
| CC1Cc2c(Cl)ncnc2N(C)c2ccc(F)cc21 (stereo not given) | inactive |

Next compound, please.
Lookup: // param item: CCCC(O)Cn1ncc(C(=O)OCC)c1NC(=O)NCc1ccccc1F (stereo not given) ; yields the recorded call
Found: inactive
